Cited source: PubChem BioAssay AID248

Tested on: L1210 leukemia ip in BDF1 mice, survival T/C
Test: NCI In Vivo Anticancer Drug Screen. Data for tumor model L1210 Leukemia (intraperitoneal) in B6D2F1 (BDF1) mice
Conditions: endpoint: mean survival time; dose: 400.0 mg/kg/injection; schedule: Q04DX003 (ip); vehicle: Klucel (hydroxypropylcellulose) (HPC); higher = longer survival
Toxic doses and inconclusive results are not listed.
Endpoint Label: T/C

Clc1ccc(/C(=[C](\[Hg]/[C](=C(\c2ccccc2)c2ccc(Cl)cc2)c2ccccc2)c2ccccc2)c2ccccc2)cc1 ... 102 % of control
Cc1ccc(N=C(c2ccccc2)c2ccc([N+](=O)[O-])cc2)cc1 ... 102 % of control
COc1ccc(Cl)cc1NC(=O)COc1ccc(Cl)cc1 ... 90 % of control

Batch request: T/C for each of the following compounds.
1. COc1ccc(C2NC(=O)c3ccccc3N2)c(OC)c1OC (stereo not given)
2. Clc1ccc(C2=NC3=CC(Cl)C=CC3=CC2C2CO2)cc1 (stereo not given)
3. O=C(O)/C=C/C(=O)NCCNC(=O)/C=C/C(=O)O
4. CCCCNC(=O)Nc1ccccc1

1: 102 % of control; 2: 98 % of control; 3: 96 % of control; 4: 96 % of control

Consider the following items and state reported T/C for each.
1. O=C(c1ccccc1)c1c2ccccc2c(C(=O)c2ccccc2)c2ccccc12
2. Cc1c(O)ccc2c1OCC2=O
3. COC1=C(NCc2ccccc2)C(=O)C(OC)=C(NCc2ccccc2)C1=O
4. CCOC(=O)c1cc(Cl)c(O)c(Cl)c1
5. CC(C)N1CSC(=S)N(Cc2ccccc2)C1
6. CCOC(=O)c1cnc(SC)nc1NCCO
7. CCCCCCCCCCCCCCCCC1(c2ccccc2)NC(=O)NC1=O (stereo not given)
8. O=C(NC1CCCCC1)c1ccc(Cl)cc1

["99 % of control", "93 % of control", "97 % of control", "95 % of control", "90 % of control", "97 % of control", "98 % of control", "102 % of control"]

Give one value of T/C per listed compound.
1. Cc1ccc(CNc2ccc(Br)cc2)cc1
2. COc1cc(C)c(C)cc1C(C)C(C)C(=O)O (stereo not given)
3. CCCCC(O)CCC (stereo not given)
4. CCOC(=O)Nc1cc([N+](=O)[O-])ccc1OC

1: 101 % of control; 2: 98 % of control; 3: 93 % of control; 4: 101 % of control

Give T/C for each listed item.
1. Clc1ccc2c(c1)/C(=C/c1ccccc1Cl)c1cc(Cl)cc(Cl)c1-2
2. O=[N+]([O-])c1cc(/C=N\Nc2ccccn2)ccc1Cl
3. O=[N+]([O-])c1ccc(/C=C/c2nccs2)o1
4. CCOC(=O)c1cnc(C)nc1Nc1ccccc1
5. CCCCCCCCCCCCCCCCCCCC/C=C/C1CC(=O)OC1=O (stereo not given)

["87 % of control", "101 % of control", "108 % of control", "108 % of control", "113 % of control"]

----------
Test system: L1210 leukemia ip in BDF1 mice, survival T/C
Experiment: NCI In Vivo Anticancer Drug Screen. Data for tumor model L1210 Leukemia (intraperitoneal) in B6D2F1 (BDF1) mice
Conditions: endpoint: mean survival time; dose: 100.0 mg/kg/injection; schedule: Q01DX001 (ip); vehicle: saline with Tween-80; higher = longer survival
Toxic doses and inconclusive results are not listed.
Provide the recorded T/C for the entries that follow.

Here's what some known entries look like.
Clc1nc2ncn3ncnc3c2[nH]1 ... 104 % of control
CS(=O)(=O)OC1CCC(OS(C)(=O)=O)CC1 (stereo not given) ... 103 % of control
COc1ccc(Cl)cc1NC(=O)Oc1ccc(C(C)=O)cc1 ... 100 % of control
COc1ccc(C(=O)Nc2cccc(C(F)(F)F)c2)cc1 ... 97 % of control
CCOC1(OCC)CS(=O)(=O)C1Cl (stereo not given) ... 98 % of control
O=C(O)CC1CCC(NC(=O)NCCCl)CC1 (stereo not given) ... 105 % of control
COc1ccc(-c2sc(/N=C/c3cc(Br)cc(Br)c3O)c(C#N)c2C)cc1OC ... 89 % of control
CCc1cc(C(=O)NC(CCC(=O)O)C(=O)O)ccc1NCc1cnc2nc(N)[nH]c(=O)c2n1 (stereo not given) ... 100 % of control

Record T/C per entry; entries follow.
1. CSCC#N
2. CC(=O)Nc1ccc(C(=O)O)c(OC(C)=O)c1
3. CCCCC/C=C/C/C=C/CCCCCCCC(=O)N1CCOCC1
4. CC1(C)C2CCC(I)(C2)C1I (stereo not given)
5. N=C(CCCc1ccccc1)SCc1ccccc1
6. O=[N+]([O-])c1ccc(N/N=C/C(c2ccccc2)c2ccsc2)c([N+](=O)[O-])c1 (stereo not given)
7. CCOC(=O)C(C)Oc1cccc(O)c1[N+](=O)[O-] (stereo not given)

93 % of control
92 % of control
94 % of control
93 % of control
102 % of control
97 % of control
95 % of control
